Target: Dual specificity protein kinase CLK4 (Homo sapiens) (UniProt Q9HAZ1)
Sequence (Q9HAZ1 whole entry, looked up): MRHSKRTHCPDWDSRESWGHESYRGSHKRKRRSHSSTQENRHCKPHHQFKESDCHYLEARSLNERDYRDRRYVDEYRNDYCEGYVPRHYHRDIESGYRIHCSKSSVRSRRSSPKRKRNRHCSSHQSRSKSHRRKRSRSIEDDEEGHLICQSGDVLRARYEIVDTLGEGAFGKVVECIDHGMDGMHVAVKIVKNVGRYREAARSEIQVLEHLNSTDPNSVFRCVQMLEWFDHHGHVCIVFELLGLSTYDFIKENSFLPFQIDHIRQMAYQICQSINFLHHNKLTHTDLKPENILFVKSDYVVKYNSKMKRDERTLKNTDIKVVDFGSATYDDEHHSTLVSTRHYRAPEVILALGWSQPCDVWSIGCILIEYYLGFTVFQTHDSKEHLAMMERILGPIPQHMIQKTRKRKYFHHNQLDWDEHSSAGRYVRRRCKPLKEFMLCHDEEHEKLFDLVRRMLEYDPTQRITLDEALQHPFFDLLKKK
Experiment: qHTS Assay for Inhibitors of CDC-like Kinase 4 (ADP-FP Assay) (AID 1795); further: nearly all actives have a fitted effect of over 60% in size; further: potency means the concentration at half of the fitted maximal effect
Conditions: Transcreener ADP fluorescence polarization; series mostly up to 50 µM
Results filed as inconclusive are left out. The source made the active and inactive calls. The call rests on the fitted dose curve; in most records, active means well fitted inhibition curve with a large enough effect; inconclusive means small, poorly fitted or top-dose-only effect; inactive means flat fitted curve, though single readings scatter.
READOUT TYPE: Potency

Completed entries (count: 5):
STRUCTURE STRING	READOUT TYPE	RECORDED MEASUREMENT
COc1ccc(CNc2ncncc2-c2ccc(C(=O)N(C)C)cc2)c(OC)c1	Potency	inactive
CN1CCN(c2ncc3nc(-c4cccc(C#N)c4)c(=O)n(CCC#N)c3n2)CC1	Potency	inactive
COc1ccc(CNc2ncncc2-c2ccccc2C)c(OC)c1	Potency	inactive
CCNc1ncc2nc(-c3ccc(F)cc3)c(=O)n(Cc3ccc(F)cc3)c2n1	Potency	inactive
CCNc1ncc2nc(-c3ccccc3)c(=O)n(Cc3cccc(OC)c3)c2n1	Potency	inactive

// query Query (molecule): `CNc1ncnc2ccc(-c3ccc4c(c3)OCO4)cc12` ; field requested: Potency
// result 0.355 µM (active)

// query Query (molecule): `CCNc1ncc2nc(-c3cc(F)cc(F)c3)c(=O)n(CCc3ccccc3)c2n1` ; field requested: Potency
// result inactive

// query Query (molecule): `COc1cccc(Cn2c(=O)c(-c3ccc(F)cc3)nc3cnc(N4CCNCC4)nc32)c1` ; field requested: Potency
// result inactive

###

Assay: qHTS Assay for Lipid Storage Modulators (AID 1519)
Conditions: Drosophila S3 cells, BODIPY lipid droplet/cell ratio, laser cytometry; measured here: cell count channel max response; cells loaded with oleic acid
Records with an inconclusive call do not appear.
READOUT TYPE: max response (%)
Answer with a number only, understood to be in %.

// query Query (compound): `COc1ccc2c(c1)OCc1c-2oc2cc(OC)ccc12` ; field requested: max response
// result -1.79

// query Query (compound): `COc1ccc(CNc2ccnc(-c3ccccc3CN(C)C)n2)c(OC)c1` ; field requested: max response
// result 26.9

// query Query (compound): `Cc1cnc(CNc2ccnc(-c3ccc(C(=O)N(C)C)cc3)n2)cn1` ; field requested: max response
// result 6.03

// query Query (compound): `N#Cc1cccc(-c2nc(Nc3ccncc3)c3ccccc3n2)c1` ; field requested: max response
// result 4.98

// query Query (compound): `Cc1ccccc1-c1ccc2ncnc(N3CCNCC3)c2c1` ; field requested: max response
// result 4.98

// query Query (compound): `CC(C)NC(=O)N1CC[C@@]2(CCCN(S(=O)(=O)c3ccccc3)C2)C1` ; field requested: max response
// result -9.01

// query Query (compound): `COc1ccc(CNc2cc(-c3ccccc3CN(C)C)ncn2)c(OC)c1` ; field requested: max response
// result 8.17

// query Query (compound): `C[n+]1ccccc1/C=N\O` ; field requested: max response
// result -5.77

// query Query (compound): `COc1ccc2[nH]cc(CCNc3nc(-c4ccoc4)nc4ccccc34)c2c1` ; field requested: max response
// result 6.9

###

Experiment: NFAT Signaling Pathway (AID 444);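 further: carbachol stimulus at about its EC50 of 1 µM final; on the % scale 0 is the no-effect control and ±100 the full control effect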
Details: Jurkat NFAT-bla M1, carbachol, beta-lactamase ratio, 5 h; at 7.69 µM (top of the series) unless noted
Method: NCGC Assay Overview: The nuclear factor of activated T cells (NFAT) family of transcription factors has been found primarily in most immune system cells and some other non-immune cells. NFAT plays the immunomodulatory role, primarily in T-cell activation and differentiation. […] NCGC Assay Protocol Summary: The cells were prepared in RPMI 1640 medium containing 0.1% dialyzed FBS and 25 mM HEPES at 1.6 x 10^6cell/ml. […] The %Activity was determined from the ratio of 460nm/530nm. […]
Records with an inconclusive call do not appear. Active and inactive are the calls of the source. Calls come from the whole dose curve; as a rule, active = well fitted curve in either direction with a large enough effect (not every such curve was filed as active); inconclusive = small, poorly fitted or top-dose-only effect, or another doubt; inactive = flat fitted curve, though single readings scatter.
READOUT TYPE: activity change, negative = inhibition

Completed entries (count: 10):
STRUCTURE STRING	activity change, negative = inhibition
COCC(=O)N1CCC2(CC1)CN(c1ccncc1)C2	2.67% (inactive)
COc1ccc(Oc2ncc3nc(-c4cn(C)c5ccccc45)c(=O)n(C)c3n2)cc1	-8.09% (inactive)
COc1c(O)cc2c(c1O)[C@@H]1O[C@@H](CO)[C@@H](O)[C@@H](O)[C@@H]1OC2=O	4.01% [at 17.2 µM] (inactive)
COc1ccc(C(=O)N2CCC[C@@]3(CCN(C)C3)C2)cc1	-2.06% (inactive)
Cc1cnc(CNc2cc(-c3ccccc3C(F)(F)F)ncn2)cn1	10.7% (inactive)
Cc1ccccc1-c1nc(NCCN2CCOCC2)c2ccccc2n1	-9.08% (inactive)
COc1ccc(C(=O)N2CCC3(CC2)CCN(c2ncccn2)CC3)cc1	0.535% (inactive)
COc1ccc(NC(=O)N2CCCC3(CCN(C(=O)c4cccn4C)CC3)C2)cc1	-20.9% (inactive)
CC(=O)N(CC(O)CN(C(C)=O)c1c(I)c(C(=O)NC[C@@H](O)CO)c(I)c(C(=O)NC[C@@H](O)CO)c1I)c1c(I)c(C(=O)NC[C@@H](O)CO)c(I)c(C(=O)NC[C@@H](O)CO)c1I	-2.76% [at 17.2 µM] (inactive)
COc1ccccc1CNc1nc(-c2ccccc2OC)nc2ccccc12	-24.7% (inactive)

// query Query (molecule): `COc1ccccc1-c1cncnc1NCc1cccc(C)c1` ; field requested: activity change, negative = inhibition
// result -21.2% (inactive)

// query Query (molecule): `CS(=O)(=O)Nc1cccc(-c2cncnc2Nc2ccccc2)c1` ; field requested: activity change, negative = inhibition
// result 23.9% (inactive)

// query Query (molecule): `N#Cc1cccc(-c2nc(Nc3ccccc3)c3ccccc3n2)c1` ; field requested: activity change, negative = inhibition
// result 15.5% (inactive)

// query Query (molecule): `COc1ccc(Oc2ncc3ncc(=O)n(Cc4cccc(OC)c4)c3n2)cc1` ; field requested: activity change, negative = inhibition
// result -6.25% (inactive)

// query Query (molecule): `COCCNc1nc(-c2ccccc2C(F)(F)F)nc2ccccc12` ; field requested: activity change, negative = inhibition
// result 5.96% (inactive)

// query Query (molecule): `O=C(c1csnn1)N1CCC2(CC1)CN(c1cccc(-c3ccccc3)c1)C2` ; field requested: activity change, negative = inhibition
// result -11.3% (inactive)

// query Query (molecule): `CC(=O)Nc1c(I)c(C(=O)N[C@H]2[C@@H](O)[C@H](O)[C@H](CO)O[C@@H]2O)c(I)c(N(C)C(C)=O)c1I` ; field requested: activity change, negative = inhibition
// result -0.843% [at 17.2 µM] (inactive)

// query Query (molecule): `Cc1ccccc1-c1ccc2ncnc(NCc3cccnc3)c2c1` ; field requested: activity change, negative = inhibition
// result 2.06% (inactive)

// query Query (molecule): `O=C(c1cccc(F)c1)N1CCC[C@@]2(CCN(c3cccc(-c4ccccc4)c3)C2)C1` ; field requested: activity change, negative = inhibition
// result -14.4% (inactive)

// query Query (molecule): `CCNc1ncc2nc(-c3cn(C)c4ccccc34)c(=O)n(Cc3ccc(F)cc3)c2n1` ; field requested: activity change, negative = inhibition
// result 2.58% (inactive)
